Tested on: CD2F1 mice, L1210 leukemia ip, survival T/C
TEST DESCRIPTION: NCI In Vivo Anticancer Drug Screen. Data for tumor model L1210 Leukemia (intraperitoneal) in CD2F1 (CDF1) mice
CONDITION CONTEXT: endpoint: mean survival time; dose: 200.0 mg/kg/injection; schedule: Q01DX001 (ip); vehicle: saline; higher = longer survival
Toxic doses and inconclusive results are not listed.
PROPERTY NAME: T/C

See these solved cases before continuing.
# MOLECULE, TARGET OR TEST SYSTEM, T/C
data = [
    ("CCCOC(=O)C(SCCN(C)C)c1ccccc1 (configuration not stated)", "CD2F1 mice, L1210 leukemia ip, survival T/C", "97 % of control"),
    ("CC1C(=O)C(Br)CC2C1(C)CCC1C2(C)CCC2(C)C3CC(C)(C)CCC3(C)CCC12C (configuration not stated)", "CD2F1 mice, L1210 leukemia ip, survival T/C", "97 % of control"),
    ("CCCC(CC)OC(=O)Nc1cccc2ccccc12 (configuration not stated)", "CD2F1 mice, L1210 leukemia ip, survival T/C", "102 % of control"),
    ("O=C(O)c1cc(=O)c2ccccc2[nH]1", "CD2F1 mice, L1210 leukemia ip, survival T/C", "91 % of control"),
]

Hello, I am looking for reported T/C with CD2F1 mice, L1210 leukemia ip, survival T/C for `Cc1nc2c(c(-c3ccccc3)n1)Cc1c(ccc3ccccc13)O2` . Could you help?
98 % of control

Hello, I am looking for reported T/C with CD2F1 mice, L1210 leukemia ip, survival T/C for COC(=O)C1C2C=CC(C2)C1C(=O)O (configuration not stated) . Could you help?
98 % of control

Hello, I am looking for reported T/C with CD2F1 mice, L1210 leukemia ip, survival T/C for `O=[N+]([O-])c1ccc(S(=O)(=O)O)cc1` . Could you help?
105 % of control

Each recorded value in this set is attributed to PubChem BioAssay AID256.
